Biological target: anti-CD28 scFv (VH - linker 1 - VL) (biotinylated (site not stated))
Sequence (scFv, as listed by the source): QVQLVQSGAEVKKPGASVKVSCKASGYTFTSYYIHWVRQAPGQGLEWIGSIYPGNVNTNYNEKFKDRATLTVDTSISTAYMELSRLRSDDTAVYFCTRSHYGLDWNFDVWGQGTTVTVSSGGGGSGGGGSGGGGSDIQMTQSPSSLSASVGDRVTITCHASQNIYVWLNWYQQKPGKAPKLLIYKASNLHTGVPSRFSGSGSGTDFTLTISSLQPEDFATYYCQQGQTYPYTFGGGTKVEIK
Test: phage ELISA; biotinylated anti-CD28 scFv on neutravidin plate, clonal phage supernatant, anti-M13-HRP detection;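 also: before phage addition, wells were pretreated with soluble CD28 protein in blocking buffer, or with blocking buffer only as the comparison, then phage were added without washing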
MEASURED METRIC: CD28 scFv signal
No unit in the answer, only the number.

The binder identified as MDWCPRDMWSECFA (peptide, not shown: large carriers, Clonal phage supernatant) [Phage-31] registered its CD28 scFv signal at 2.7

Sure, the documented CD28 scFv signal for MDWCPMHLWHQCFN (peptide, not shown: large carriers, Clonal phage supernatant) [Phage-39] is 2.56

# CD28 scFv signal of MDWCPRFMWDECFN (peptide, not shown: large carriers, Clonal phage supernatant) [Phage-33] = 2.68

Data point: MDWCPLYLWNECFN (peptide, not shown: large carriers, Clonal phage supernatant) [Phage-24] ; CD28 scFv signal = 2.61

Where these numbers come from: patent US20260242478A1
